- target_system: Schistosoma mansoni thioredoxin glutathione reductase (TGR)
- assay: qHTS Assay for the Inhibitors of Schistosoma Mansoni Peroxiredoxins; further: nearly all actives have a fitted effect of over 60% in size; further: potency means the concentration at half of the fitted maximal effect
- condition: purified TGR, DTNB reduction, TNB absorbance 405 nm; series mostly up to 114 µM
Hit rate of the full screen: of about 360,000 compounds, about 11,000 (3.1%) were called active. Inconclusive results (about 4%) are left out. Many of the other results were omitted from the sample, so actives are more common in it than they were.
value_type: Potency

Check out these entries, answers already filled in.
| molecule | Potency |
| --- | --- |
| COc1ccccc1Nc1c2c(nc3ccc(NC(=O)/C=C/c4cc(OC)c(OC)c(OC)c4)cc13)CCCC2 | inactive |
| Cc1cccc(-n2ncc(C(=O)N3CCc4ccccc4C3)c2C2CCN(C(=O)OC(C)(C)C)CC2)c1 | inactive |
| N#Cc1cccc(CN2CCC(=O)N(CCO)CC2)c1 | inactive |
| COC/C=C/C1=CC2=CC(=O)C(C)(OC(=O)CCC(=O)OC)C(=O)C2=CO1 (configuration not stated) | 3.98 µM (active) |
| COc1cc(OC)cc(C(=O)Nc2c(C(=O)Nc3ccc(F)cc3)oc3ccccc23)c1 | inactive |

Note Potency for the molecule shown: `CCOC(=O)Nc1sc(C(=O)N(C)C)c(C)c1C(=O)OCC`
inactive

For the molecule `CCCn1c2ccccc2c2cnn(CC(=O)NCCCOC(C)C)c(=O)c21` , give its reported Potency.
inactive

----------
- target_system: Schistosoma mansoni thioredoxin glutathione reductase (TGR) (UniProt Q962Y6)
- assay: qHTS Assay for the Inhibitors of Schistosoma Mansoni Peroxiredoxins; further: nearly all actives have a fitted effect of over 60% in size
- condition: purified TGR, DTNB reduction, TNB absorbance 405 nm; series mostly up to 114 µM
Out of some 360,000 compounds screened, about 11,000 (3.1%) were called active. Roughly 4% stayed inconclusive and do not appear here. Calls follow the shape of the dose curve; as a rule, active = well fitted inhibition curve with a large enough effect; inconclusive = small, poorly fitted or top-dose-only effect; inactive = no such curve, though single readings can be large or run the other way. This excerpt belongs to a sample that is enriched for actives.
// one of active, inactive, no free text

| compound | class_name |
| --- | --- |
| CCOc1ccc(NC(=O)c2cnn(-c3ccccc3)c2-n2cccc2)cc1 | inactive |
| COc1ccc(SC[C@H](Cc2ccccc2)N2CCN(CCc3ccccc3)CCC2=O)cc1 | active |
| O=C(CCC(=O)N/N=C/c1ccc(Br)o1)N/N=C/c1ccc(Br)o1 | active |
| CC(C)CNC(=O)CC(c1ccccc1)c1c(O)ccc2ccccc12 (stereo unspecified) | inactive |
| Brc1ccc2c(c1)NC(c1cccnc1)=NC(c1ccccc1)=N2 | inactive |

GET /call?item= COc1ccc(N2CCN(S(=O)(=O)c3ccc4c(c3)NC(=O)C(C)C(=O)N4)CC2)cc1 (stereo unspecified) returns the recorded outcome of this test.
inactive

Can you look up the reported call for CC1C(=O)Nc2ccc(S(=O)(=O)N3CCN(c4ccccc4F)CC3)cc2NC1=O (stereo unspecified) for me?
inactive

----------
- target_system: Schistosoma mansoni thioredoxin glutathione reductase (TGR)
- assay: qHTS Assay for the Inhibitors of Schistosoma Mansoni Peroxiredoxins; further: nearly all actives have a fitted effect of over 60% in size; further: potency means the concentration at half of the fitted maximal effect
- condition: purified TGR, DTNB reduction, TNB absorbance 405 nm; series mostly up to 114 µM
Screen size: about 360,000 compounds; about 11,000 (3.1%) were called active. Roughly 4% stayed inconclusive and do not appear here. Only a selection was taken, and actives are over-represented in it overall.
value_type: Potency

Before answering, review these 5 worked examples.
| compound | Potency |
| --- | --- |
| CCCNc1ncnc2c1c(-c1ccccc1)cn2-c1ccc(OCC)cc1 | inactive |
| CCOc1c(CNCc2ccc(C(=O)O)cc2)cccc1OC | inactive |
| CC(=O)n1c(C=Nc2ccccc2)c(O)c2ccccc21 | inactive |
| O=[N+]([O-])c1ccc(N=Cc2c(O)ccc3ccccc23)cc1 | 22.4 µM (active) |
| COc1ccc(C2C(=O)N(C3CCCCCC3)CC(=O)N2CCc2ccc(Cl)cc2)cc1OC (stereo unspecified) | inactive |

Give the reported Potency for this compound. `Cc1cc(C)cc(C(=O)NCCN2CCOCC2)c1`
inactive

Output Potency of `Cc1[nH]n(C)c(=O)c1C(=O)c1c(-c2c(Cl)cccc2Cl)noc1C`
25.1 µM (active)

Entry `CN(C)CCCn1c(N)c(C#N)c2nc(C#N)c(C#N)nc21` needs its Potency filled in; supply it.
20 µM (active)

Return reported Potency. Input compound: `CCOC(=O)c1c(C)oc2nc(C)nc(N(CC(C)C)CC(C)C)c12`
inactive

Complete the entry with Potency for `O=C(Cn1cc(SCc2cccc(Cl)c2)c2ccccc21)N1CCCCC1`
inactive

Read the entry `C/C(=N\Nc1ncc(Cl)cc1Cl)c1ccc(S(=O)(=O)NCc2ccco2)cc1` and write its reported Potency.
inactive

----------
- target_system: Schistosoma mansoni thioredoxin glutathione reductase (TGR)
- assay: qHTS Assay for the Inhibitors of Schistosoma Mansoni Peroxiredoxins; further: nearly all actives have a fitted effect of over 60% in size
- condition: purified TGR, DTNB reduction, TNB absorbance 405 nm; series mostly up to 114 µM
The campaign covered roughly 360,000 compounds. About 11,000 (3.1%) were called active. Another 4% or so got no clear call; they are omitted. Calls follow the shape of the dose curve; as a rule, active = well fitted inhibition curve with a large enough effect; inconclusive = small, poorly fitted or top-dose-only effect; inactive = no such curve, though single readings can be large or run the other way. Only a selection was taken, and actives are over-represented in it overall.
Return exactly one item of 1 (yes) (active), 0 (no) (inactive)

A selection of reference data follows.
| molecule | class_name |
| --- | --- |
| CC(C)c1ccc(C2C(C(=O)c3ccco3)=C(O)C(=O)N2CC2CCCO2)cc1 (centres undefined) | 0 (no) |
| O=C(CCS(=O)(=O)c1ccccc1)N(Cc1cccnc1)c1nc2c(F)cccc2s1 | 1 (yes) |

# outcome recorded in this test, key = `CCOC(=O)c1cnc(COc2ccccc2Cl)[nH]c1=O`
0 (no)

What did the test return for `Cc1ccc(Cc2c(C)nc3nc(SCC(=O)NCCN4CCOCC4)nn3c2C)cc1` ?
0 (no)

----------
- target_system: Schistosoma mansoni thioredoxin glutathione reductase (TGR) (UniProt Q962Y6)
- assay: qHTS Assay for the Inhibitors of Schistosoma Mansoni Peroxiredoxins; further: nearly all actives have a fitted effect of over 60% in size
- condition: purified TGR, DTNB reduction, TNB absorbance 405 nm; series mostly up to 114 µM
- Source text: Schistosomiasis is a major neglected tropical disease that currently affects over 200 million. It is caused by different species of flatworms, such as Schistosoma mansoni. […] In addition, the fluorescence assay was also subject to fluorescence interference from compound library members. […] The assay followed the reduction of 5, 5'-dithiobis (2-nitrobenzoic acid) (DTNB) (Ellman's reagent) by NADPH and measured the increase in absorbance at 412 nm of the reaction product, TNB. […]
Screen size: about 360,000 compounds; about 11,000 (3.1%) were called active. Roughly 4% stayed inconclusive and do not appear here. Calls come from the whole dose curve; as a rule, active = well fitted inhibition curve with a large enough effect; inconclusive = small, poorly fitted or top-dose-only effect; inactive = no such curve, though single readings can be large or run the other way. Only a selection was taken, and actives are over-represented in it overall.
// one of active, inactive, no free text

Sample answers from the record:
| molecule | class_name |
| --- | --- |
| COC(=O)C1=CN(Cc2ccc(OC)cc2)C=C(C(=O)OC)C1c1ccc(O)c(OC)c1 | inactive |
| Cc1ccc(C2CCN(C(=O)c3cnn(-c4ccccc4Cl)c3C3CCN(C(=O)OC(C)(C)C)CC3)C2)cc1 (stereo unspecified) | inactive |
| COc1ccc(CCNC(=O)C(=O)NCC(c2ccco2)S(=O)(=O)c2cccs2)cc1OC (stereo unspecified) | active |
| C=CCOC(=O)C1=C[C@@H](c2ccccc2)C[C@@H](OCc2ccc(CO)cc2)O1 | inactive |

Entry `CCOc1cc(C2C(C(=O)OC)=CN(C3CCCC3)C=C2C(=O)OC)cc(Br)c1O` : call = ?
active

Given `CCOC(=O)COc1nc(C)cc(C(F)(F)F)c1C#N` , state the outcome it received in this test.
inactive

Outcome logged for O=C(NCC(c1ccco1)N1CCc2ccccc21)c1cccc(F)c1 (stereo unspecified) in this assay:
inactive

Which result was noted for this molecule in the test: CCC(Sc1nc2n[nH]c(C)c2c(=N)n1-c1ccccc1Cl)C(=O)N(CC)CC (stereo unspecified)
inactive

Answer briefly: the call reported for `C#Cc1ccc([C@@H]2C=C(C(=O)O)O[C@H](OCCCCO)C2)cc1` in this assay.
active

----------
- target_system: Schistosoma mansoni thioredoxin glutathione reductase (TGR) (UniProt Q962Y6)
- assay: qHTS Assay for the Inhibitors of Schistosoma Mansoni Peroxiredoxins; further: nearly all actives have a fitted effect of over 60% in size
- condition: purified TGR, DTNB reduction, TNB absorbance 405 nm; series mostly up to 114 µM
Among all 360,000 compounds or so, about 11,000 (3.1%) were called active. Inconclusive results (about 4%) are left out. Calls come from the whole dose curve; as a rule, active = well fitted inhibition curve with a large enough effect; inconclusive = small, poorly fitted or top-dose-only effect; inactive = no such curve, though single readings can be large or run the other way. This excerpt belongs to a sample that is enriched for actives.
Please reply with one of these outcomes: label 1 for active, label 0 for inactive

| compound | class_name |
| --- | --- |
| Cc1ccccc1OCCSc1nc2ccc(NC(=O)c3ccco3)cc2s1 | label 0 |
| COc1ccc(NC2=CC(=S)NC(C)(C)C2)cc1 | label 1 |

Look up the recorded call for `COc1ccc(CCNC2=CC(=O)CC(C)(C)C2)cc1` in this test.
label 0

Test call, this compound: Cc1ccc2c(c1)N(C(=O)CCC(=O)NCc1ccccc1F)CC(C)O2 (stereo unspecified)
label 0

Would you mind telling me which call this test gave `COc1cc(NC(=O)CSc2nc3nc(C)c(Cc4ccc(C)cc4)c(C)n3n2)cc(OC)c1OC` ?
label 0

Check the results log: what was the call for `O=C1CCCC(O)=C1N=Nc1ccc(S(=O)(=O)N2CCOCC2)cc1` ?
label 1

Record request — test call for `CCOc1ccccc1N(CC)C(=O)Nc1cn(C)c(=O)c2ccccc12`
label 0

How was `O=[N+]([O-])c1cc(S(=O)(=O)N2CCCC2)ccc1NN=C1CCCC1` classified in this test?
label 0

For this compound, state the assay outcome: `CC1(C)CC(=O)C(N=Nc2ccc(S(=O)(=O)N3CCCCCC3)cc2)=C(O)C1`
label 0

Record request — test call for `COc1ccc(NC(=O)CCNS(=O)(=O)c2ccc3c(c2)CCCC(=O)N3)cc1Cl`
label 0

Field: outcome | Entry: `Cc1cc2nc(-c3ccc(NC(=O)c4cc5ccccc5o4)cc3)oc2cc1C`
label 0
